Target: T1, EsCas13d, nuclease-dead (Eubacterium siraeum, UniProt B0MS50, R295A;H300A;R849A;H854A)
T1 sequence: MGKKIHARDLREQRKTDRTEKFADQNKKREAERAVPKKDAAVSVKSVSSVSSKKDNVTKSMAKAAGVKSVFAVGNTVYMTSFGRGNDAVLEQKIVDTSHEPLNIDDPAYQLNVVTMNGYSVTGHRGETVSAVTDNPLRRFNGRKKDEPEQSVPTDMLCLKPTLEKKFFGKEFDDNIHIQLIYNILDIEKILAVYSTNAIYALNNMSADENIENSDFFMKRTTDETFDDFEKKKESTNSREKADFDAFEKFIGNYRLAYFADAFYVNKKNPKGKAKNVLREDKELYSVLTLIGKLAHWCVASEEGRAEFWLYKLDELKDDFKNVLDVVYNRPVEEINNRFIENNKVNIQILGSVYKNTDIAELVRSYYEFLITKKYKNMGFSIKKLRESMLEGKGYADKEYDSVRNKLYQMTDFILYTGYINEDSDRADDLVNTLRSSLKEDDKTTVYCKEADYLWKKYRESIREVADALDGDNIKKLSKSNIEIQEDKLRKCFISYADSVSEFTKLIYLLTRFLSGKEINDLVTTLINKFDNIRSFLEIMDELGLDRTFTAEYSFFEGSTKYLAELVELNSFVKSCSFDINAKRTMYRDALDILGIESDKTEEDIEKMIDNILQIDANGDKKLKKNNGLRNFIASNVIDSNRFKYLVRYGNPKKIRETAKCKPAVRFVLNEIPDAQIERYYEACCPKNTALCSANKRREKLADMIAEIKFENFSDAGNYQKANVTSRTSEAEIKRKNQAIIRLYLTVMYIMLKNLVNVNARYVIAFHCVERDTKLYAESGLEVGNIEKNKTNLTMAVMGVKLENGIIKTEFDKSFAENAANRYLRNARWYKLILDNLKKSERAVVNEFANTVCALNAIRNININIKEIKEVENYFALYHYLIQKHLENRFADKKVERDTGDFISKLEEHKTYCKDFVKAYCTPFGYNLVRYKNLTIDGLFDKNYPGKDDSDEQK
Assay: crRNA (strand 1, pre-loaded); Mg2+; 40 mM Tris-HCl pH 7.5, 150 mM NaCl, 6 mM MgCl2, 1 mM DTT, 0.1% Tween-20, 0.2 mg/ml BSA; 25 C; 10 min per concentration, then washed
Conditions: tags: His6-TwinStrep-SUMO cleaved; N-terminal SNAP kept (SNAP-Surface 488); label: 3' end held by stalled T7 RNA polymerase
parameter.measured: Kd (nM)
Numbers only here, please. The scale is nM.

INSERT INTO measurements (binder, result_number) VALUES
  ('target 2 MT 5''PFS UUG 3''PFS CGA (mixed) RNA 1: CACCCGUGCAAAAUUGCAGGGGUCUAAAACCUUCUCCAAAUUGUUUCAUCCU RNA 2: GGGAAUGGAUCCACAUCUACGAAUUCUUGAGGAUGAAACAAUUUGGAGAAGCGAAGAUCGGAAGAGCACACGU', 11.4);

Alright, here's another binder for you.
IN: Please report Kd for the following binder: target 1 insA 3' of 19,insU 3' of 4 (mixed) RNA 1: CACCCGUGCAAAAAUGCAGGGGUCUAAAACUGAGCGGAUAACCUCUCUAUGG RNA 2: GGGAAUGGAUCCACAUCUACGAAUUCGUACCAUAAGAGAGGUUAUCCGCUUCACCGAGAUCGGAAGAGCACACGU
OUT: 17.9
